target: SHP1 immunoprecipitated from LPS-activated DC2.4 cells (UniProt P29351); assay: SHP1 phosphatase assay (EnzChek tyrosine phosphatase kit), dose-response; settings: SHP1 from LPS (100 ng/ml)-activated DC2.4 cells; read-out: inhibitory tyrosine phosphatase activity IC50
pIC50: −log10 of the molar value.
VALUE_KIND: pIC50

What pIC50 appears in the records for this molecule with SHP1 immunoprecipitated from LPS-activated DC2.4 cells (UniProt P29351)? Cc1c(C)c2c(c(C)c1O)CC[C@@](C)(CCC[C@H](C)CCC[C@H](C)CCCC(C)C)O2 [VitE, D-α-Tocopherol]
3.70 to 4.30

###

target: purified SHP1 (Homo sapiens, UniProt P29350)
Sequence (P29350 whole entry): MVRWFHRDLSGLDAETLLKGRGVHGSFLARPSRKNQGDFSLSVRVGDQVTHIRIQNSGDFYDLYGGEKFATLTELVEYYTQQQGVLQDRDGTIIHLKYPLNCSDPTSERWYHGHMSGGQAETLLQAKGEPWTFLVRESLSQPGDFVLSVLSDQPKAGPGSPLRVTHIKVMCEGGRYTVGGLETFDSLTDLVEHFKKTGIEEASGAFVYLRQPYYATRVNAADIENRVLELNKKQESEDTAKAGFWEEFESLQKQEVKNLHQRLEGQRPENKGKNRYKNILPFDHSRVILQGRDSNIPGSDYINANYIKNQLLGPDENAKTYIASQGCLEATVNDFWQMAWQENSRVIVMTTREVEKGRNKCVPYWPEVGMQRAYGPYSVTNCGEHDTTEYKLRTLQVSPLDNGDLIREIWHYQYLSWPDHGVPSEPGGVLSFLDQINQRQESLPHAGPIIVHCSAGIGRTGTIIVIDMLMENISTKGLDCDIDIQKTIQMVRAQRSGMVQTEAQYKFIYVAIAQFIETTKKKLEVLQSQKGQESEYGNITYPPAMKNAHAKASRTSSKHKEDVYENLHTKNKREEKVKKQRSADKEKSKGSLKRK
VALUE_KIND: pKd
// scale note: pKd = -log10(conc_M); give the bare number

So what pKd did `Cc1c(C)c2c(c(C)c1O)CC[C@@](C)(CCC[C@H](C)CCC[C@H](C)CCCC(C)C)O2` get with purified SHP1 (Homo sapiens, UniProt P29350)?
4.41

Every entry's value here was drawn from patent US20240424019A1.
